test system: OVCAR-8 ovarian; test: NCI tumour cell line growth inhibition, 48 h
RECORDED METRIC: TGI

If you can, please state the reported TGI value of CC(=O)[CH-]C(=O)c1ccccc1.CC(=O)[CH-]C(=O)c1ccccc1.COc1cccc([O-])c1[O-].[Ti+4] .
> 100 µM

If you can, please state the reported TGI value of Cn1cc(C2=C(c3c4n(c5ccccc35)CCCC4)C(=O)NC2=O)c2ccccc21 .
> 25 µM

If you can, please state the reported TGI value of O=c1cc(CO)n(CCc2c[nH]c3ccccc23)cc1O .
> 100 µM

If you can, please state the reported TGI value of CC1(c2cccc3c2C2(O)C=CC4(CCC32)OCCO4)OCCO1 (stereo not given) .
> 100 µM

If you can, please state the reported TGI value of O=[N+]([O-])c1ccc(N=Nc2c(O)ccc3cc(S(=O)(=O)O)ccc23)cc1 .
> 100 µM
